Test: relative permittivity at zero frequency (dimensionless)
Conditions: 298.15 K; 101.3 kPa; Liquid; Coaxial cylinder capacitor
measured.parameter: relative permittivity at zero frequency
Answers are plain numbers.

Past entries and their recorded results:
> print(dat)
   compound.string  reported
1        CCCCCCCCO      9.85
2        O=C1CCCC1     13.52
3       O=C1CCCCC1     15.81
4            CCCCO     17.49
5          CCCCCCO     13.06

Batch request: relative permittivity at zero frequency per item, same order as input.
1. OC1CCCCC1
2. CCCCCCCCCCO
3. CCO

[15.71, 7.74, 24.37]

Values compiled from the NIST ThermoML archive (doi:10.1021/acs.jced.8b00755).
